Assay: Chemical stability (chemical hydrolysis) at different pH and temperature, HPLC of residual RSVTR
Format: physicochemical
Conditions: phosphate buffer, pH 6.8, pH 6.8 phosphate buffer, 5 °C, dark
assay.endpoint: half-life at 1.18 µM (days)
Enter your answer as a number in days; do not include the unit.

Data request: Reported half-life at 1.18 µM, molecule Cc1c(C)c2c(c(C)c1O)CCC(C)(C(=O)Oc1ccc(/C=C/c3cc(OC(=O)C4(C)CCc5c(C)c(O)c(C)c(C)c5O4)cc(OC(=O)C4(C)CCc5c(C)c(O)c(C)c(C)c5O4)c3)cc1)O2 (stereo not shown) [RSVTR] : ____
Data returned: 48.1

====

Experiment: Chemical stability (chemical hydrolysis) at different pH and temperature, HPLC of residual RSVTR
Assay type: physicochemical
Settings: 0.2 N HCl solution, pH 2, pH 2.0 (0.2 N HCl), 5 °C, dark
assay.endpoint: half-life at 1.18 µM (days)
Enter your answer as a number in days; do not include the unit.

Data request: Reported half-life at 1.18 µM, compound Cc1c(C)c2c(c(C)c1O)CCC(C)(C(=O)Oc1ccc(/C=C/c3cc(OC(=O)C4(C)CCc5c(C)c(O)c(C)c(C)c5O4)cc(OC(=O)C4(C)CCc5c(C)c(O)c(C)c(C)c5O4)c3)cc1)O2 (stereo not shown) : ____
Data returned: 19.2

====

Experiment: Chemical stability (chemical hydrolysis) at different pH and temperature, HPLC of residual RSVTR
Assay type: physicochemical
Settings: phosphate buffer, pH 7.2, pH 7.2 phosphate buffer, 5 °C, dark
assay.endpoint: half-life at 1.18 µM (days)
Enter your answer as a number in days; do not include the unit.

Data request: Reported half-life at 1.18 µM, compound Cc1c(C)c2c(c(C)c1O)CCC(C)(C(=O)Oc1ccc(/C=C/c3cc(OC(=O)C4(C)CCc5c(C)c(O)c(C)c(C)c5O4)cc(OC(=O)C4(C)CCc5c(C)c(O)c(C)c(C)c5O4)c3)cc1)O2 (stereo not shown) : ____
Data returned: 72.2

====

Assay: Chemical stability (chemical hydrolysis) at different pH and temperature, HPLC of residual RSVTR
Type: physicochemical
Settings: phosphate buffer, pH 6.8, pH 6.8 phosphate buffer, 37 °C, dark
Protocol: The chemical hydrolysis of RSVTR was studied at pH 2.0 (0.2 N HCI), 6.8 and 7.2 (phosphate buffer solutions). All solutions containing the same amount of RSVTR (1.18 µM) were kept in the dark at a constant temperature of 37 °C, 22 °C, and 5 °C. […] Pseudo-first-order rate constants were determined from the slope of the linear portion of the graph obtained, plotting the logarithm of the residual amount of RSVTR against time. […]
assay.endpoint: half-life at 1.18 µM
Please don't drop the unit; write it after the number.

Data request: Reported half-life at 1.18 µM, compound Cc1c(C)c2c(c(C)c1O)CCC(C)(C(=O)Oc1ccc(/C=C/c3cc(OC(=O)C4(C)CCc5c(C)c(O)c(C)c(C)c5O4)cc(OC(=O)C4(C)CCc5c(C)c(O)c(C)c(C)c5O4)c3)cc1)O2 (stereo not shown) : ____
Data returned: 28.9 days

====

Assay: Chemical stability (chemical hydrolysis) at different pH and temperature, HPLC of residual RSVTR
Type: physicochemical
Settings: 0.2 N HCl solution, pH 2, pH 2.0 (0.2 N HCl), 37 °C, dark
Protocol: The chemical hydrolysis of RSVTR was studied at pH 2.0 (0.2 N HCI), 6.8 and 7.2 (phosphate buffer solutions). All solutions containing the same amount of RSVTR (1.18 µM) were kept in the dark at a constant temperature of 37 °C, 22 °C, and 5 °C. […] Pseudo-first-order rate constants were determined from the slope of the linear portion of the graph obtained, plotting the logarithm of the residual amount of RSVTR against time. […]
assay.endpoint: half-life at 1.18 µM (days)
Enter your answer as a number in days; do not include the unit.

Data request: Reported half-life at 1.18 µM, compound Cc1c(C)c2c(c(C)c1O)CCC(C)(C(=O)Oc1ccc(/C=C/c3cc(OC(=O)C4(C)CCc5c(C)c(O)c(C)c(C)c5O4)cc(OC(=O)C4(C)CCc5c(C)c(O)c(C)c(C)c5O4)c3)cc1)O2 (stereo not shown) [RSVTR] : ____
Data returned: 5.54

====

Assay: Chemical stability (chemical hydrolysis) at different pH and temperature, HPLC of residual RSVTR
Format: physicochemical
Conditions: phosphate buffer, pH 6.8, pH 6.8 phosphate buffer, 22 °C, dark
assay.endpoint: half-life at 1.18 µM (days)
Enter your answer as a number in days; do not include the unit.

Data request: Reported half-life at 1.18 µM, compound Cc1c(C)c2c(c(C)c1O)CCC(C)(C(=O)Oc1ccc(/C=C/c3cc(OC(=O)C4(C)CCc5c(C)c(O)c(C)c(C)c5O4)cc(OC(=O)C4(C)CCc5c(C)c(O)c(C)c(C)c5O4)c3)cc1)O2 (stereo not shown) : ____
Data returned: 36.1

====

Assay: Chemical stability (chemical hydrolysis) at different pH and temperature, HPLC of residual RSVTR
Assay type: physicochemical
Conditions: phosphate buffer, pH 7.2, pH 7.2 phosphate buffer, 37 °C, dark
assay.endpoint: half-life at 1.18 µM (days)
Enter your answer as a number in days; do not include the unit.

Data request: Reported half-life at 1.18 µM, molecule Cc1c(C)c2c(c(C)c1O)CCC(C)(C(=O)Oc1ccc(/C=C/c3cc(OC(=O)C4(C)CCc5c(C)c(O)c(C)c(C)c5O4)cc(OC(=O)C4(C)CCc5c(C)c(O)c(C)c(C)c5O4)c3)cc1)O2 (stereo not shown) : ____
Data returned: 12.5

====

Assay: Chemical stability (chemical hydrolysis) at different pH and temperature, HPLC of residual RSVTR
Type: physicochemical
Conditions: 0.2 N HCl solution, pH 2, pH 2.0 (0.2 N HCl), 22 °C, dark
assay.endpoint: half-life at 1.18 µM (h)
Enter your answer as a number in h; do not include the unit.

Data request: Reported half-life at 1.18 µM, molecule Cc1c(C)c2c(c(C)c1O)CCC(C)(C(=O)Oc1ccc(/C=C/c3cc(OC(=O)C4(C)CCc5c(C)c(O)c(C)c(C)c5O4)cc(OC(=O)C4(C)CCc5c(C)c(O)c(C)c(C)c5O4)c3)cc1)O2 (stereo not shown) : ____
Data returned: 198

Attribution: paper PMC7823449
